- MEASUREMENT_TARGET: rat recombinant D3 receptors expressed in Sf9 cells (Rattus norvegicus)
- Sequence (P19020 whole entry): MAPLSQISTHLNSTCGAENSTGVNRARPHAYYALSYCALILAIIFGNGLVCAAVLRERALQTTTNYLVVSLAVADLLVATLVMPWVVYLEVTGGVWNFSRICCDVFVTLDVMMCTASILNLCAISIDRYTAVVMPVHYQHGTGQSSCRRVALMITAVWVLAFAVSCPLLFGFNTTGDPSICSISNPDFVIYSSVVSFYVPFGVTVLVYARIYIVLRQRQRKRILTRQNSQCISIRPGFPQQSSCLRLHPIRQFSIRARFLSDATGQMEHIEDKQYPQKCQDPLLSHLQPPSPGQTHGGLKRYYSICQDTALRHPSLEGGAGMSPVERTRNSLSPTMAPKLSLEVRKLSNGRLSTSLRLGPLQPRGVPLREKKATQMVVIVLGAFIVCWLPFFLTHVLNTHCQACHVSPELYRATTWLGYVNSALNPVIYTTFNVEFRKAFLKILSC
- ASSAY_PROCEDURE: D3 receptor binding ([3H]-spiperone)
- MEASUREMENT_CONTEXT: [3H]-spiperone 0.4 nM; non-specific binding with haloperidol 10 μM
pIC50: −log10 of the molar value.
The reader will find reported pIC50 values listed item by item below.
MEASURED_METRIC: pIC50

smiles_code=O=S(=O)(N[C@H]1CC[C@H](CCN2CCC(Nc3cccc(C(F)(F)F)c3)CC2)CC1)c1ccc(Cl)cc1 measured_metric=pIC50 reported_measurement=8.52
smiles_code=CN(C)S(=O)(=O)N[C@H]1CC[C@H](CCN2CCN(c3cc(C#N)cc(C(F)(F)F)c3)CC2)CC1 measured_metric=pIC50 reported_measurement=8.82
smiles_code=O=S(=O)(N[C@H]1CC[C@H](CCN2CCN(c3cccc(C(F)(F)F)c3)CC2)CC1)c1cccnc1 measured_metric=pIC50 reported_measurement=9.52
smiles_code=CCCCS(=O)(=O)N[C@H]1CC[C@H](CCN2CCN(c3cccc(C(F)(F)F)c3)CC2)CC1 measured_metric=pIC50 reported_measurement=9.22
smiles_code=O=S(=O)(N[C@H]1CC[C@H](CCN2CCC(Cc3cccc(F)c3)CC2)CC1)c1ccc(Cl)cc1 measured_metric=pIC50 reported_measurement=8.41

###

IC50 values by entry
- MEASUREMENT_TARGET: D2 receptor, rat striatal tissue (Rattus norvegicus, UniProt P61169)
- Sequence (P61169 whole entry): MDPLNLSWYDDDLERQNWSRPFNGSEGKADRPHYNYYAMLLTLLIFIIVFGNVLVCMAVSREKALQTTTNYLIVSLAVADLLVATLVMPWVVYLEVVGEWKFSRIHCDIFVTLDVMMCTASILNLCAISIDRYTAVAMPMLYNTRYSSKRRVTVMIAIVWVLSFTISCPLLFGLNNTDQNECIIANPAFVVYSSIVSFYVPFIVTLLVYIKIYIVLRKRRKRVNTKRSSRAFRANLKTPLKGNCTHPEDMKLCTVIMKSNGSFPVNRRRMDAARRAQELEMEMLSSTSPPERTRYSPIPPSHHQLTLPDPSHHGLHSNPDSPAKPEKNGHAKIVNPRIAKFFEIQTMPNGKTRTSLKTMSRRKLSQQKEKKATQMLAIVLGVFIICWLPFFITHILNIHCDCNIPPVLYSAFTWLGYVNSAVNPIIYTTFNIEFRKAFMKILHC
- ASSAY_PROCEDURE: D2 receptor binding ([3H]-spiperone)
- MEASUREMENT_CONTEXT: [3H]-spiperone 0.5 nM, non-specific binding with (±)-sulpiride 10 μM
MEASURED_METRIC: IC50 (nM)

smiles_code=N#Cc1cc(N2CCN(CC[C@H]3CC[C@H](NS(=O)(=O)c4ccc(Cl)s4)CC3)CC2)cc(C(F)(F)F)c1 reported_measurement=128
smiles_code=CN(C)S(=O)(=O)N[C@H]1CC[C@H](CCN2CCN(c3cc(C#N)cc(C(F)(F)F)c3)CC2)CC1 reported_measurement=290
smiles_code=CCCCS(=O)(=O)N[C@H]1CC[C@H](CCN2CCN(c3ccc(-c4ccccc4)cc3OC)CC2)CC1 reported_measurement=2590
smiles_code=O=S(=O)(N[C@H]1CC[C@H](CCN2CCN(c3cccc(C(F)(F)F)c3)CC2)CC1)c1cccnc1 reported_measurement=29
smiles_code=CCCCS(=O)(=O)N[C@H]1CC[C@H](CCN2CCN(c3cccc(C(F)(F)F)c3)CC2)CC1 reported_measurement=110
smiles_code=O=S(=O)(N[C@H]1CC[C@H](CCN2CCC(Cc3cccc(F)c3)CC2)CC1)c1ccc(Cl)cc1 reported_measurement=345
smiles_code=O=S(=O)(CCCN1CCOCC1)N[C@H]1CC[C@H](CCN2CCN(c3cccc(C(F)(F)F)c3)CC2)CC1 reported_measurement=109
smiles_code=COc1cc(-c2ccccc2)ccc1N1CCN(CC[C@H]2CC[C@H](NS(=O)(=O)N(C)C)CC2)CC1 reported_measurement=245
smiles_code=CCCCS(=O)(=O)N[C@H]1CC[C@H](CCN2CCC(Nc3cccc(C(F)(F)F)c3)CC2)CC1 reported_measurement=102
smiles_code=O=S(=O)(N[C@H]1CC[C@H](CCN2CCC(Nc3cccc(C(F)(F)F)c3)CC2)CC1)c1ccc(Cl)cc1 reported_measurement=16
smiles_code=O=S(=O)(N[C@H]1CC[C@H](CCN2CCC(Oc3cccc(C(F)(F)F)c3)CC2)CC1)c1cccnc1 reported_measurement=66
smiles_code=N#Cc1cc(N2CCN(CC[C@H]3CC[C@H](NS(=O)(=O)c4ccc(Cl)cc4)CC3)CC2)cc(C(F)(F)F)c1 reported_measurement=65

These entries and their values trace back to patent US7473692B2.
